Can you tell me pIC50 for the items I'm about to list?
Tested on: breast line MDA468
Assay: In vitro cell culture growth assay (MTS), MDA468
Type: cell-based, human
Details: Homo sapiens, 72 h, MDA468 cells, three days after drug treatment
Entry type: numeric. Quantity: pIC50, the -log10 of concentration in molar units.

[Q] What pIC50 value was documented for this molecule, CNC(=O)Nc1ccc(-c2nc(N3CCOCC3)c3cnn(C4CCN(C(=O)c5ccc(Cl)cc5)CC4)c3n2)cc1 [Example 362] ?
[A] 6.40

[Q] What pIC50 value was documented for this molecule, "O=C(Nc1cccnc1)N1CCC(n2ncc3c(N4CCOCC4)nc(-c4ccc5[nH]ccc5c4)nc32)CC1" ?
[A] 5.92

[Q] What pIC50 value was documented for this molecule, CNC(=O)Nc1ccc(-c2nc(N3CCOCC3)c3cnn(C4CCN(C(=O)c5ccc(Br)cc5)CC4)c3n2)cc1 [Compound 606] ?
[A] 6.74

[Q] What pIC50 value was documented for this molecule, "CNC(=O)Nc1ccc(-c2nc(N3CCOCC3)c3cnn([C@H]4CCCNC4)c3n2)cc1" ?
[A] 6.14

Ref: patent US20080234262A1
